# Lookup of reported IC50 keyed by entry
measured on: UniProt Q9BE39
Sequence (Q9BE39 whole entry): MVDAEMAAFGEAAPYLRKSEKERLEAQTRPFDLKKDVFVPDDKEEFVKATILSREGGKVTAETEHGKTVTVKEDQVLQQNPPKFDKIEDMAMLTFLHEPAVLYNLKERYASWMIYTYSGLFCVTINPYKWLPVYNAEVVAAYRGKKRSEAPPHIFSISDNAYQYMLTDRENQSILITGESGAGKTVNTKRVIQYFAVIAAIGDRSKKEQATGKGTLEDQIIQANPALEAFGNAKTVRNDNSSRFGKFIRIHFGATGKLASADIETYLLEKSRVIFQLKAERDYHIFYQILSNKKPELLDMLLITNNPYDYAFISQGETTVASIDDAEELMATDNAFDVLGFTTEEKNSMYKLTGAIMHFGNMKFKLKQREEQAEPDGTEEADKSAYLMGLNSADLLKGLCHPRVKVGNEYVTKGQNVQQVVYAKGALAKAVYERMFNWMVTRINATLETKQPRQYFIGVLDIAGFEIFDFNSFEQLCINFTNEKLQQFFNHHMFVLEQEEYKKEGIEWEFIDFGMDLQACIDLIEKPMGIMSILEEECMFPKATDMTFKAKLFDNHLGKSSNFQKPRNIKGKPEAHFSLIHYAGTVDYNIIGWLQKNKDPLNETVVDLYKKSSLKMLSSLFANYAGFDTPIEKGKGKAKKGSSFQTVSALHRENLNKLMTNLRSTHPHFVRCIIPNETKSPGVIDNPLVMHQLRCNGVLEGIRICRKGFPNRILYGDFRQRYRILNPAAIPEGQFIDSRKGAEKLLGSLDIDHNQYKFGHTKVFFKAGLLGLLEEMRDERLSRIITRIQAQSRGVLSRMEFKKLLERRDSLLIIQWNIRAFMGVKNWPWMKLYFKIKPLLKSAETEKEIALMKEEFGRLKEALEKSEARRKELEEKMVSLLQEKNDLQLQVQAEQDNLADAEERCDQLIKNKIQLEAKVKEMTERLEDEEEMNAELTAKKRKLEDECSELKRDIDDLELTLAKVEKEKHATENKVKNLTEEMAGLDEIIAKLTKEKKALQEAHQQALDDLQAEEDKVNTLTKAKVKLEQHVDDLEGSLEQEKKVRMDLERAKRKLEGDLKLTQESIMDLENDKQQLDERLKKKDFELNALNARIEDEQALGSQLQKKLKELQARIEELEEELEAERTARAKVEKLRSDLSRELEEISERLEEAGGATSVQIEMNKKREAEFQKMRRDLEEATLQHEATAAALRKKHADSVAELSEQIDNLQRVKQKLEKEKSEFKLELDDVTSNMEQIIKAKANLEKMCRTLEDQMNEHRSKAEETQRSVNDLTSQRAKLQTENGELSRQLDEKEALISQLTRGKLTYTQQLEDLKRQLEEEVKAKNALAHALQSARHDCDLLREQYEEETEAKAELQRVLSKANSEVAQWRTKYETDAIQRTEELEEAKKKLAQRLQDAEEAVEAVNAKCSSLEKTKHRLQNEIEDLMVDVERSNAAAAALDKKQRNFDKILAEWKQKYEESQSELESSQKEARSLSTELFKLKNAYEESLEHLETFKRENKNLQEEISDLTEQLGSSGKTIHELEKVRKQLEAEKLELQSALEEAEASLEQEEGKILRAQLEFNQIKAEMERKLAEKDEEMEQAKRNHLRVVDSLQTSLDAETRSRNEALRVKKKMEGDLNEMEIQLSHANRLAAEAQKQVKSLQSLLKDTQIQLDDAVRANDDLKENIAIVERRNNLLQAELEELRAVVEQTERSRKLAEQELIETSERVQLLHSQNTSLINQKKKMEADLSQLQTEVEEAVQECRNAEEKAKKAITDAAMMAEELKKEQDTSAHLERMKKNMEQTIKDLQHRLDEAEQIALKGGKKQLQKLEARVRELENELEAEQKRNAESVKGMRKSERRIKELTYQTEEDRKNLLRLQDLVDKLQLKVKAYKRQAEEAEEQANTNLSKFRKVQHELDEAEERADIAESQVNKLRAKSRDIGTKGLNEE
Sequence (P85100 whole entry partner): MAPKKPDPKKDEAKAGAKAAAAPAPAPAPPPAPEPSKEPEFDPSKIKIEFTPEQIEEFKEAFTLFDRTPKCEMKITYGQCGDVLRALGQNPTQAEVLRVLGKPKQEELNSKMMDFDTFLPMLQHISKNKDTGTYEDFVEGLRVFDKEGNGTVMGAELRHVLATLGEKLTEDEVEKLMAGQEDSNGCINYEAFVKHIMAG
Sequence (Q3SZE5 whole entry partner): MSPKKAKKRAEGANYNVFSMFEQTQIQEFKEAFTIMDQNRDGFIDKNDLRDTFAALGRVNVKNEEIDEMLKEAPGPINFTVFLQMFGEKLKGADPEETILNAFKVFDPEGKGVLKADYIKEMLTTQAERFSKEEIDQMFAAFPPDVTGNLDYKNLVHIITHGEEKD
test description: Myosin inhibitory potency: PK/LDH-coupled ATPase assay on bovine skinned cardiac myofibrils
test settings: pCa=6.25, 50 μM ATP, 25° C., read-out: myosin inhibition activity IC50

compound: Cc1cc([C@@H](C)Nc2nc(=O)n(C3CCOCC3)c(=O)[nH]2)c(F)cc1F
IC50: 0.37 µM
//
compound: CCc1ccc([C@H](C)Nc2nc(=O)n(C3CCOCC3)c(=O)[nH]2)cc1
IC50: 0.74 µM
//
compound: O=c1nc(NC(CF)c2ccccc2)[nH]c(=O)n1C1CCCCC1 (centres unmarked)
IC50: 4.83 µM
//
compound: C[C@H](Nc1nc(=O)n([C@@H](C)C(F)(F)F)c(=O)[nH]1)c1cccc(F)c1
IC50: 3.62 µM
//
compound: C[C@H](Nc1nc(=O)n(C2CCN(C)CC2)c(=O)[nH]1)C1CCCCC1
IC50: 2.59 µM
//
compound: CC(Nc1nc(=O)n(C2CCOCC2)c(=O)[nH]1)c1cccc(CO)c1 (centres unmarked)
IC50: 6.65 µM
//
compound: CC(Nc1nc(=O)n(C2CCOCC2)c(=O)[nH]1)c1ccc2c(c1)OC(F)(F)O2 (centres unmarked)
IC50: 1.14 µM
//
compound: C[C@H](Nc1nc(=O)n(C2CCOCC2)c(=O)[nH]1)c1ccc(F)c(Br)c1
IC50: 0.52 µM
//
compound: C[C@H](Nc1nc(=O)n(C2CCC(O)C2)c(=O)[nH]1)C1CCCCC1 (some centres unmarked)
IC50: 8.35 µM
//
compound: COC[C@@H](Nc1nc(=O)n(C2CCOCC2)c(=O)[nH]1)c1cc(C)ccc1F
IC50: 0.63 µM
//
compound: CC(Nc1nc(=O)n(C(C)C)c(=O)[nH]1)C1CCC(F)(F)CC1 (centres unmarked)
IC50: 10.2 µM
//
compound: Cc1ccc([C@H](C)Nc2nc(=O)n(C3CCOCC3)c(=O)[nH]2)cc1C
IC50: 1.23 µM
//
compound: C[C@H](Nc1nc(=O)n(C2CCOCC2)c(=O)[nH]1)c1cccc([C@@H](O)C(F)(F)F)c1
IC50: 2.58 µM
//
compound: CC(Nc1nc(=O)n(C2CCOCC2)c(=O)[nH]1)c1ccc(CO)cc1 (centres unmarked)
IC50: 12.3 µM
//
compound: C[C@H](Nc1nc(=O)n(C2CCCCC2)c(=O)[nH]1)C1CCCCC1
IC50: 7.41 µM
//
compound: Cc1cccc([C@H](C)Nc2nc(=O)n(C3CCCOC3)c(=O)[nH]2)c1 (some centres unmarked)
IC50: 2.59 µM
//
compound: CC(Nc1nc(=O)n(C2CCOCC2)c(=O)[nH]1)c1ccc(C2CC2)cc1 (centres unmarked)
IC50: 4.93 µM
